target-under-test: human COX-2 (Homo sapiens)
Construct: purchased Cayman Chemicals 560131
Sequence (P35354 18-604): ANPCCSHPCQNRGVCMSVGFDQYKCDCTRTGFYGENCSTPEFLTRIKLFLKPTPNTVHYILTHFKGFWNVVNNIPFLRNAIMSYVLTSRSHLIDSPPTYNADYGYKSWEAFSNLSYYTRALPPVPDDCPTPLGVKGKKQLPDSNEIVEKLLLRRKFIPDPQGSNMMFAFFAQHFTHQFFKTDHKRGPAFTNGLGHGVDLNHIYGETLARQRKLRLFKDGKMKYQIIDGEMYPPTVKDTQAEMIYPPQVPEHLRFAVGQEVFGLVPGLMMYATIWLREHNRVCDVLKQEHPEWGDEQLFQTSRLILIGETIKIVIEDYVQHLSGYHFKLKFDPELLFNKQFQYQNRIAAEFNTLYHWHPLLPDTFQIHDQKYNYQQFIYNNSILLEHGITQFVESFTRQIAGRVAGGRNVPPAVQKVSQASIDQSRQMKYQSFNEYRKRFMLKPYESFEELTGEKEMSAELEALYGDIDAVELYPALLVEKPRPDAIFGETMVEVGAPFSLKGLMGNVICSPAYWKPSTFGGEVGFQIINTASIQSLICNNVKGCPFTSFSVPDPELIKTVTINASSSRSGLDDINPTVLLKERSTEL
experimental-details: In vitro COX-2 inhibitory activity
Type: biochemical
condition-context: COX-2 over COX-1; selectivity index of celecoxib normalized to 100%
The following molecules are listed with their measured selectivity index values.
Remember to put the unit after the number in your answer.

The examples below pair each entry with its known result.
>>> df
                                        mol           target_under_test       measure_name  test_value
0  N#Cc1c(-c2ccc(-n3nc(-c4ccccc4)ccc3=O)cc2)c(C#N)c(=O)n(-c2nccs2)c1N  human COX-2 (Homo sapiens)  selectivity index     121.73%
1  N#Cc1c(-c2ccc(-n3nc(-c4ccccc4)ccc3=O)cc2)c(C#N)c(=O)n(-c2ccc(S(N)(=O)=O)cc2)c1N  human COX-2 (Homo sapiens)  selectivity index     121.20%
2  N#Cc1c(-c2ccc(-n3nc(-c4ccccc4)ccc3=O)cc2)c(C#N)c(=O)n(-c2ccccn2)c1N  human COX-2 (Homo sapiens)  selectivity index     101.61%

Data point: N#Cc1c(-c2ccc(-n3nc(-c4ccccc4)ccc3=O)cc2)c(C#N)c(=O)n(-c2cccc(C(F)(F)F)c2)c1N ; selectivity index = 111.0%
